# subject of test: Human immunodeficiency virus type 1 reverse transcriptase (Human immunodeficiency virus 1, UniProt Q72547)
pIC50: −log10 of the molar value.
Think of 6 as a floor: if pIC50 stands on it or above, it is t; beneath it, f.

Incoming: Textbook exercise: given the entry Cc1cn(C2CC(O)C(C#N)(COP(=O)(O)OP(=O)(O)OP(=O)(O)O)C2)c(=O)[nH]c1=O (racemic) , state whether its pIC50 is greater than or equal to 6.
Outgoing: t

Incoming: Can N#CC1(COP(=O)(O)OP(=O)(O)OP(=O)(O)O)CC(n2cnc3c(=O)[nH]c(N)nc32)CC1O (racemic) be said to have pIC50 at or above 6?
Outgoing: t

Incoming: Given the entry C#CC1(COP(=O)(O)OP(=O)(O)OP(=O)(O)O)CC(n2cnc3c(N)nc(Cl)nc32)CC1O (racemic) , answer whether its pIC50 meets or surpasses 6.
Outgoing: f
